- TESTED ON: T1, Human T cell receptor on human primary T cells (human, UniProt P01848 1-140; P01850 1-176)
- T1 TCR alpha (looked up): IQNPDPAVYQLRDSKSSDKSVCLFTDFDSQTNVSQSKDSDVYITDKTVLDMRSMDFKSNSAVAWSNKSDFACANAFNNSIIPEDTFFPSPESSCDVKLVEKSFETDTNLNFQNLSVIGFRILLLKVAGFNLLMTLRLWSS
- T1 TCR beta (looked up): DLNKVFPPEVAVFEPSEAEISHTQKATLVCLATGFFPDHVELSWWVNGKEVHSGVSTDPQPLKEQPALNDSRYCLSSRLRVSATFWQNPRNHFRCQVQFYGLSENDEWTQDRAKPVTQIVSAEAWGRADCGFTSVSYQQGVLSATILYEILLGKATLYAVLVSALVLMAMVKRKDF
- PROTOCOL SUMMARY: cell-based or functional assay
EC50 (M), T cell mediated MOLM-13 cell killing, human primary T cells, E:T 10:1 values, listed per item
Number in M, nothing else.

# get_value(readout='EC50 (M), T cell mediated MOLM-13 cell killing, human primary T cells, E:T 10:1', item= T017000642 (bispecific antibody) DVQLVESGGGVVQPGGSLRLSCVASWDVHKINFYTWYRQAPGKEREKVAHISIGDQTDYADSAKGRFTISRDESKNTVYLQMNSLRPEDTALYYCRALSKIWPYDYWGQGTLVTVSSGGGGSGGGGSGGGGSGGGGSGGGGSGGGGSGGGGSEVQLVESGGGLVQAGGSLRLSCAASGITSKINDMGWYRQTPGNYREWVASITATGTTNYRDSVKGRFTISRDNAKSTVYLQMNSLKPEDTTVYYCNTFPPISNFWGQGTLVTVSSA )
3e-10

# get_value(readout='EC50 (M), T cell mediated MOLM-13 cell killing, human primary T cells, E:T 10:1', item= T017000131 (bispecific antibody, also called A0110056A10(E1D)-35GS-T0170056G05-A) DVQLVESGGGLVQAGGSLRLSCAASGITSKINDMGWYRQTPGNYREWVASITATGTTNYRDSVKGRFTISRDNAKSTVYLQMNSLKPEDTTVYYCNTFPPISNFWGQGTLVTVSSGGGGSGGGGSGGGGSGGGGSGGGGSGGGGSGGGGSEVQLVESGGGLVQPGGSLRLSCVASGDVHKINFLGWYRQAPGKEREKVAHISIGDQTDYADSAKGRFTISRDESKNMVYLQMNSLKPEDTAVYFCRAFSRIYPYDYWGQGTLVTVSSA )
1.3e-09

# get_value(readout='EC50 (M), T cell mediated MOLM-13 cell killing, human primary T cells, E:T 10:1', item= T017000634 (bispecific antibody, also called A0110056A10(E1D)-35GS-T0170056G05(L11V, D27Y, L34Y, M77T, K83R, V89L, F91Y, F95L, Y99W)-A) DVQLVESGGGLVQAGGSLRLSCAASGITSKINDMGWYRQTPGNYREWVASITATGTTNYRDSVKGRFTISRDNAKSTVYLQMNSLKPEDTTVYYCNTFPPISNFWGQGTLVTVSSGGGGSGGGGSGGGGSGGGGSGGGGSGGGGSGGGGSEVQLVESGGGVVQPGGSLRLSCVASGYVHKINFYGWYRQAPGKEREKVAHISIGDQTDYADSAKGRFTISRDESKNTVYLQMNSLRPEDTALYYCRALSRIWPYDYWGQGTLVTVSSA )
1.4e-10

Values from patent US20240092919A1
